# Tested on: DMS153
# Assay Remarks: Pamiparib and TMZ combination, anti-proliferation
# Format: cell-based
# Experimental Setup: Homo sapiens, DMS-153, read-out: EC50 of TMZ single agent
Value Kind: EC50 (µM)

compound="Cn1nnc2c(C(N)=O)ncn2c1=O [TMZ, Temozolomide]" unit_descriptor=µM value_reported=60

====

# Test system: NCI-H1436
# Assay Remarks: Pamiparib and TMZ combination, anti-proliferation
# Assay type: cell-based
# Experimental Setup: Homo sapiens, NCI-H1436, read-out: EC50 of TMZ single agent
pEC50: −log10 of the molar value.
Value Kind: pEC50

compound="Cn1nnc2c(C(N)=O)ncn2c1=O [TMZ, Temozolomide]" value_reported="< 3.52"

====

# Assay Remarks: PK study in rat
# Format: in vivo
# Experimental Setup: rat, plasma
Value Kind: half-life (h)

record_smiles=C[C@]12CCCN1CC1=NNC(=O)c3cc(F)cc4[nH]c2c1c34 value_kind=half-life value_reported=5.5

====

# Assay Remarks: PK study in healthy mice
# Format: in vivo, Mouse
# Experimental Setup: mouse, plasma
Value Kind: half-life

record_smiles=C[C@]12CCCN1CC1=NNC(=O)c3cc(F)cc4[nH]c2c1c34 value_reported="3.2 h"

====

# System: T98G
# Assay Remarks: Pamiparib and TMZ combination, anti-proliferation
# Type: cell-based
# Experimental Setup: Homo sapiens, read-out: EC50 of TMZ single agent
Value Kind: EC50

compound="Cn1nnc2c(C(N)=O)ncn2c1=O [TMZ, Temozolomide]" value_reported="> 300 µM"

====

# Test system: U-118MG
# Assay Remarks: Pamiparib and TMZ combination, anti-proliferation
# Format: cell-based
# Experimental Setup: Homo sapiens, read-out: EC50 of TMZ single agent
Value Kind: EC50

compound="Cn1nnc2c(C(N)=O)ncn2c1=O [TMZ, Temozolomide]" test_system=U-118MG value_kind=EC50 value_reported="> 300 µM"

====

# Assay Remarks: PK/PD in MDA-MB-436 xenograft
# Assay type: in vivo, mice
# Experimental Setup: BALB/c nude, mouse, tumor, oral, 5.45 mg/kg
Value Kind: concentration at 4 h

record_smiles=C[C@]12CCCN1CC1=NNC(=O)c3cc(F)cc4[nH]c2c1c34 value_reported="~800 nM"

====

The compounds listed here are annotated with their AUC1-4h, Brain.
# Assay Remarks: Brain penetration of PARP inhibitors in mice
# Format: in vivo, male C57 mice
# Experimental Setup: single p.o. dose: Pamiparib 10, Talazoparib 3, Olaparib 50, Niraparib 50 mg/kg
Value Kind: AUC1-4h, Brain (ng·h/g)

compound="C[C@]12CCCN1CC1=NNC(=O)c3cc(F)cc4[nH]c2c1c34 [Pamiparib]" value_reported=820
compound="NC(=O)c1cccc2cn(-c3ccc([C@@H]4CCCNC4)cc3)nc12 [Niraparib, niraparib]" value_reported=1849
compound="O=C(c1cc(Cc2n[nH]c(=O)c3ccccc23)ccc1F)N1CCN(C(=O)C2CC2)CC1 [Olaparib, olaparib, reference compound]" value_reported=56
compound="Cn1ncnc1[C@H]1c2n[nH]c(=O)c3cc(F)cc(c23)N[C@@H]1c1ccc(F)cc1 [Talazoparib, talazoparib]" value_reported=85

====

# Tested on: NCI-H2227
# Assay Remarks: Pamiparib and TMZ combination, anti-proliferation
# Assay type: cell-based
# Experimental Setup: read-out: EC50 of TMZ single agent
pEC50: −log10 of the molar value.
Value Kind: pEC50

compound="Cn1nnc2c(C(N)=O)ncn2c1=O [TMZ, Temozolomide]" value_reported=3.24
